- experimental.target: Inadl_8, Q8NI35
- Sequence (Q8NI35 1425-1530): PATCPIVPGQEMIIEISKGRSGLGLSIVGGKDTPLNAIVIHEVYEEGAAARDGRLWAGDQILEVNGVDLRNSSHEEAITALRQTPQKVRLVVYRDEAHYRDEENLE
- protocol.description: holdup assay
- Set-up: key: below the threshold = too weak to quantify, mostly under pKd 3.1 to 4
- condition.context: plain residues with an end cap or a label only (N-terminal biotin on a linker: ado-ado)
outcome.measure: pKd
Answers are plain numbers.

binder	pKd
FVHPILQSAV [PRKCA, P17252]	4.71

Consider the record given below.
Report pKd for TETASVCTKV [SLC23A1, Q9UHI7] please. 4.01
